Give log10(TGI) for every item shown.
- Test system: SF-539 CNS
- test_details: NCI tumour cell line growth inhibition, 48 h
Kindly note that the scale is log10 and the underlying TGI is in µM.

Looking up Fc1ccc2nc(-c3cc(-c4ccc5c(c4)OCO5)n[nH]3)[nH]c2c1 , I see its log10(TGI) listed as 1.49

Looking up C=C1C2Oc3ccccc3C1N(c1ccccc1)O2 (centres undefined) , I see its log10(TGI) listed as 1.76

Looking up Cc1c(C(=O)/C=C/c2ccccc2[N+](=O)[O-])[n+](=O)c2ccccc2n1[O-] , I see its log10(TGI) listed as 1.01

Looking up COc1ccc(-n2nc(C)c3c(Nc4ccc(NC(=O)Nc5ccc(Cl)c(C(F)(F)F)c5)cc4)ncnc32)cc1 , I see its log10(TGI) listed as 0.51

Looking up c1cnn2ncc(-c3ccnc(Nc4ccc5c(c4)OCCO5)n3)c2c1 , I see its log10(TGI) listed as -0.65

Looking up [2H]c1nc(=Nc2cc(NC(=O)C=C)c(N(C)CCN(C)C)cc2OC)[nH]c(-c2cn(C([2H])([2H])[2H])c3ccccc23)c1[2H] , I see its log10(TGI) listed as 0.47

Looking up CN(C)c1cccc2c1C(=O)C=CC21c2ccc(N(C)C)c3c(N(C)C)ccc(c23)C(c2ccccc2)C1c1ccccc1 (centres undefined) , I see its log10(TGI) listed as 1.41
